The measurements presented in this section are drawn from ChEMBL document CHEMBL3608291.

system: RAW264.7; test: Cytotoxicity against mouse RAW264.7 cells assessed as reduction in cell viability at 10 to 40 uM by MTT assay; assay type: cell-based; settings: raw264.7, 40 µM
Property Name: Activity

What value of Activity on RAW264.7 does `CC/C=C\CCO[C@@H]1O[C@H](CO)[C@@H](O)[C@H](O)[C@H]1O` have?
Non-toxic

What do you get for `CC(=O)/C=C/[C@@]12O[C@@H](C[C@]1(C)O[C@@H]1O[C@H](CO)[C@@H](O)[C@H](O)[C@H]1O)[C@H](O)C2(C)C` ?
Non-toxic

What about CC1=C2C[C@@H]3[C@@](C)(C[C@]2(O)OC1=O)[C@H](O)CC[C@@]3(C)O [CHLORAEUDOLIDE] ?
Non-toxic

---

test system: RAW264.7; test: Anti-inflammatory activity in LPS-stimulated mouse RAW264.7 cells assessed as inhibition of nitric oxide production at 20 uM by Griess reaction based ELISA method; assay type: functional
The source made the active and inactive calls. No cut-off for these calls is given here.
In this exercise, the only acceptable responses are y = active, n = inactive

Worked examples, 4 molecules total:
Please share the test call associated with COc1cc([C@H](O)[C@H](O)CO)cc(OC)c1O (relative stereo) .
n

Now try `C[C@H](CC[C@H]1[C@H](C)CC(=O)CC1(C)C)O[C@@H]1O[C@H](CO)[C@@H](O)[C@H](O)[C@H]1O` .
n

Subsequent entry: `C[C@@H]1O[C@@H](OC[C@H]2O[C@@H](Oc3c(-c4ccc(O)c(O)c4)oc4cc(O)cc(O)c4c3=O)[C@H](O)[C@@H](O)[C@@H]2O)[C@H](O)[C@H](O)[C@H]1O`
n

Another molecule to check: COc1cc([C@H](O)[C@@H](O)CO)ccc1O (relative stereo)
n

---
GET /call?item= `CC1=C2C[C@@H]3[C@@](C)(C[C@]2(O)OC1=O)[C@H](O)CC[C@]3(C)O` returns the recorded outcome of this test.
n

Again, but for `C[C@H](/C=C/[C@@]1(O)[C@H](C)CC(=O)CC1(C)C)O[C@@H]1O[C@H](CO)[C@@H](O)[C@H](O)[C@H]1O`
n

Same again, this time with Oc1cc(O)c2c(c1)O[C@H](c1ccc(O)c(O)c1)[C@H](O)C2 [(-)-EPICATECHIN]
y

Similarly, COc1cc([C@H](O)[C@H](O)CO)ccc1O (relative stereo) ?
n

Queued: COc1cc([C@H](O)[C@@H](O)CO)cc(OC)c1O (relative stereo)
n

Same question, `C[C@H](CC[C@H]1[C@H](C)C[C@H](O)CC1(C)C)O[C@@H]1O[C@H](CO)[C@@H](O)[C@H](O)[C@H]1O` this time
y

Follow-up item: `COc1cc(-c2oc3cc(OC)c(O)c(O)c3c(=O)c2OC)ccc1O`
n

And then CC1=C2C[C@@H]3[C@@](C)(C[C@]2(O)OC1=O)[C@H](O)CC[C@@]3(C)O [CHLORAEUDOLIDE] , what is it?
n

Next entry: `CC(C)CC(=O)c1c(O)cc(O)cc1O[C@@H]1O[C@H](CO)[C@@H](O)[C@H](O)[C@H]1O`
n
